Ref: paper PMC10754118

In this section we review reported half-life at 1.9 mM values for a set of compounds.
# experiment-description: Chemical hydrolysis in phosphate buffer saline (PBS, pH 7.3)
# Type: physicochemical
# condition-summary: PBS pH 7.3, 37 °C, read-out: PBS pH 7.3 t 1/2 (converted)

INSERT INTO assay_data (compound, experimental_readout, experimental_value) VALUES
  ('CCCCCCCCCCCCCCCCCCP(=O)(OCc1ccc(OC(=O)CCCC)cc1)OP(=O)(O)OP(=O)(O)OC[C@@H]1O[C@H](n2cc(F)c(N)nc2=O)CS1 (stereo partly drawn) [10cz]', 'half-life at 1.9 mM', '> 62.5 days');

Form field half-life at 1.9 mM, entry CCCCCCCCCCCCCCCCCCP(=O)(OCc1ccc(OC(=O)CCCC)cc1)OP(=O)(O)OP(=O)(O)OC[C@H]1O[C@@H](n2cc(/C=C/Br)c(=O)[nH]c2=O)C[C@@H]1O (stereo partly drawn) [10gz] : > 62.5 days

Form field half-life at 1.9 mM, entry CCCCCCCCCCCCCCCCCCOP(=O)(OCC(CC)CCCC)OP(=O)(O)OP(=O)(O)OC[C@H]1O[C@@H](n2cc(/C=C/Br)c(=O)[nH]c2=O)C[C@@H]1O (stereo partly drawn) [10gw] : > 83.3 days
